Reported Survival (days) 10 mg/kg SSV po values for the following molecules.
Test system: ANKA strain of P. berghei
test.description: Single dose STI in vivo screen in infected mice
Design: species or system Plasmodium berghei
setup.conditions: single 10 mg/kg po in SSV; untreated 6-7 days
measured.endpoint: Survival (days) 10 mg/kg SSV po

- molecule: "COC(=O)c1ccc(C2(c3ccc(C(=O)OC)c(C(=O)OC)c3)OOC3(O2)C2CC4CC(C2)CC3C4)cc1C(=O)OC (centres unmarked)"
  study.target: "ANKA strain of P. berghei"
  quantitative.result: 5.0
- molecule: "O=C(C[C@H]1CC[C@]2(CC1)OOC1(O2)C2CC3CC(C2)CC1C3)N1CCN(c2ccccc2)CC1 (some centres unmarked)"
  study.target: "ANKA strain of P. berghei"
  quantitative.result: 5.3
- molecule: "CC(=O)OC(C)(C)C(=O)N[C@H]1CC[C@]2(CC1)OOC1(O2)C2CC3CC(C2)CC1C3 (some centres unmarked)"
  study.target: "ANKA strain of P. berghei"
  quantitative.result: 7.3
- molecule: "CCOC(=O)CNC[C@H]1CC[C@]2(CC1)OO[C@]1(O2)C2CC3CC(C2)CC1C3"
  study.target: "ANKA strain of P. berghei"
  quantitative.result: 9.0
- molecule: "COC(=O)c1ncnn1C[C@H]1CC[C@]2(CC1)OOC1(O2)C2CC3CC(C2)CC1C3 (some centres unmarked)"
  study.target: "ANKA strain of P. berghei"
  quantitative.result: 7.7
- molecule: "O=CN1CCN(C(=O)C[C@H]2CC[C@]3(CC2)OO[C@]2(O3)C3CC4CC(C3)CC2C4)CC1"
  study.target: "ANKA strain of P. berghei"
  quantitative.result: 8.6
- molecule: "O=C(O)c1cccc([C@H]2CC[C@]3(CC2)OOC2(O3)C3CC4CC(C3)CC2C4)c1 (some centres unmarked)"
  study.target: "ANKA strain of P. berghei"
  quantitative.result: 6.0
- molecule: "NCCNC(=O)C[C@H]1CC[C@]2(CC1)OO[C@]1(O2)C2CC3CC(C2)CC1C3"
  study.target: "ANKA strain of P. berghei"
  quantitative.result: 9.2
- molecule: "O=C(CN1C(=O)c2ccccc2C1=O)N1CCC2(CC1)OOC1(O2)C2CC3CC(C2)CC1C3 (centres unmarked)"
  study.target: "ANKA strain of P. berghei"
  quantitative.result: 6.0
- molecule: "O=S(=O)(C[C@H]1CC[C@]2(CC1)OO[C@]1(O2)C2CC3CC(C2)CC1C3)c1ncccn1"
  study.target: "ANKA strain of P. berghei"
  quantitative.result: 6.6
- molecule: "NCCC(=O)NC[C@H]1CC[C@]2(CC1)OO[C@]1(O2)C2CC3CC(C2)CC1C3"
  study.target: "ANKA strain of P. berghei"
  quantitative.result: 9.2
- molecule: "O=C(O)c1nccnc1C(=O)N1CCC2(CC1)OOC1(O2)C2CC3CC(C2)CC1C3 (centres unmarked)"
  study.target: "ANKA strain of P. berghei"
  quantitative.result: 5.7
- molecule: "COC(=O)c1ncn(C[C@H]2CC[C@]3(CC2)OOC2(O3)C3CC4CC(C3)CC2C4)n1 (some centres unmarked)"
  study.target: "ANKA strain of P. berghei"
  quantitative.result: 6.0
- molecule: "O=C(C[C@H]1CC[C@]2(CC1)OOC1(O2)C2CC3CC(C2)CC1C3)N1CCCCC1 (some centres unmarked)"
  study.target: "ANKA strain of P. berghei"
  quantitative.result: 14.3
- molecule: "c1c[nH]c([C@H]2CC[C@]3(CC2)OOC2(O3)C3CC4CC(C3)CC2C4)n1 (some centres unmarked)"
  study.target: "ANKA strain of P. berghei"
  quantitative.result: 6.0
- molecule: "S=C(Nc1ccccc1)N1CCC2(CC1)OOC1(O2)C2CC3CC(C2)CC1C3 (centres unmarked)"
  study.target: "ANKA strain of P. berghei"
  quantitative.result: 7.3
- molecule: "CCS(=O)(=O)CCN1CCC2(CC1)OOC1(O2)C2CC3CC(C2)CC1C3 (centres unmarked)"
  study.target: "ANKA strain of P. berghei"
  quantitative.result: 7.3
- molecule: "Nc1ncccc1C(=O)NC[C@H]1CC[C@]2(CC1)OOC1(O2)C2CC3CC(C2)CC1C3 (some centres unmarked)"
  study.target: "ANKA strain of P. berghei"
  quantitative.result: 9.0
